Cited source for all entries: paper PMC9287434

Molecular target: GluN1/2A(M630W) receptors (Rattus norvegicus, UniProt P35439+Q00959, M630W)
Sequence (Q00959 23-1464 M630W, other chains not shown): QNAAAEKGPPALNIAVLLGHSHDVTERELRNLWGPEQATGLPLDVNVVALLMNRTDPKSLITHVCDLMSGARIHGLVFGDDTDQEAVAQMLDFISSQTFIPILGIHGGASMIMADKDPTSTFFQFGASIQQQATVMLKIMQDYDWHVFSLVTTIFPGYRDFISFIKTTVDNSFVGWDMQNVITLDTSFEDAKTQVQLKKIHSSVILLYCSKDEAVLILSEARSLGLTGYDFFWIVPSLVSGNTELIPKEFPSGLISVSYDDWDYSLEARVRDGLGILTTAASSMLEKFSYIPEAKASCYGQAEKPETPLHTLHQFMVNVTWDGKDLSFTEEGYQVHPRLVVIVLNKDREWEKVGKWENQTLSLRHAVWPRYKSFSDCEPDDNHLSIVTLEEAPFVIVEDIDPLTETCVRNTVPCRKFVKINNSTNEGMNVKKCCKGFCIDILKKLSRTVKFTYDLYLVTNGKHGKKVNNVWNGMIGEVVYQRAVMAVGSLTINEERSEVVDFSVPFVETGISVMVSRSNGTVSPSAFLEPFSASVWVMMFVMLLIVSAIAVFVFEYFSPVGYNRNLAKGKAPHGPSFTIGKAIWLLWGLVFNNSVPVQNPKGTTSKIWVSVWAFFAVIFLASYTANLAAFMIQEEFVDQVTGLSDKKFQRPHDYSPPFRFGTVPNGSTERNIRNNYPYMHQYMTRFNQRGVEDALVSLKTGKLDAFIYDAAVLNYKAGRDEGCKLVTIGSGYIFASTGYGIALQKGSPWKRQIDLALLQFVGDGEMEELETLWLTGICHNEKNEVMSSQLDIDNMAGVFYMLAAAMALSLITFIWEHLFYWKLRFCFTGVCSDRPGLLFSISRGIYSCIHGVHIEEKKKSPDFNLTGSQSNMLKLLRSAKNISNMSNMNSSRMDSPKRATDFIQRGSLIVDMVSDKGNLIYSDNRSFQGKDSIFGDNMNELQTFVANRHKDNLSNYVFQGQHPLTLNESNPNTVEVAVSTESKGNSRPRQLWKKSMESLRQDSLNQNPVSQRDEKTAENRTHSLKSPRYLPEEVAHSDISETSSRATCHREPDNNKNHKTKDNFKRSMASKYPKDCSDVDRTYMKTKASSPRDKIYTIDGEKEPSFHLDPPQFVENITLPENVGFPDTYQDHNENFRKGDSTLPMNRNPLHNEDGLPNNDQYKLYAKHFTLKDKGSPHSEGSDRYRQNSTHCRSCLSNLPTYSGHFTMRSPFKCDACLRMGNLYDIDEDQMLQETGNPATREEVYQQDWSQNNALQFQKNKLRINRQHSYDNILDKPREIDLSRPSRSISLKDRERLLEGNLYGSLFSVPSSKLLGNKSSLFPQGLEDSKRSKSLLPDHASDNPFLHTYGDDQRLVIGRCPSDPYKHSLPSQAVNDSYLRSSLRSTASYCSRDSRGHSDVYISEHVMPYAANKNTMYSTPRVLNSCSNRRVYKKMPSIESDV
Assay: Traditional [memantine]-inhibition curve, GluN1/2A(M630W)
value-kind: pIC50
One number for each entry, as −log10 of the molar value.

q: Output measured pIC50 for this item: CC12CC3CC(C)(C1)CC(N)(C3)C2 [memantine]
a: 5.83

* * *

Biological target: GluN1/2A receptors (Rattus norvegicus, UniProt P35439+Q00959)
Construct: expressed in transfected cells; host or cells: tsA201 cells (HEK 293 variant)
Sequence (Q00959 23-1464, other chains not shown): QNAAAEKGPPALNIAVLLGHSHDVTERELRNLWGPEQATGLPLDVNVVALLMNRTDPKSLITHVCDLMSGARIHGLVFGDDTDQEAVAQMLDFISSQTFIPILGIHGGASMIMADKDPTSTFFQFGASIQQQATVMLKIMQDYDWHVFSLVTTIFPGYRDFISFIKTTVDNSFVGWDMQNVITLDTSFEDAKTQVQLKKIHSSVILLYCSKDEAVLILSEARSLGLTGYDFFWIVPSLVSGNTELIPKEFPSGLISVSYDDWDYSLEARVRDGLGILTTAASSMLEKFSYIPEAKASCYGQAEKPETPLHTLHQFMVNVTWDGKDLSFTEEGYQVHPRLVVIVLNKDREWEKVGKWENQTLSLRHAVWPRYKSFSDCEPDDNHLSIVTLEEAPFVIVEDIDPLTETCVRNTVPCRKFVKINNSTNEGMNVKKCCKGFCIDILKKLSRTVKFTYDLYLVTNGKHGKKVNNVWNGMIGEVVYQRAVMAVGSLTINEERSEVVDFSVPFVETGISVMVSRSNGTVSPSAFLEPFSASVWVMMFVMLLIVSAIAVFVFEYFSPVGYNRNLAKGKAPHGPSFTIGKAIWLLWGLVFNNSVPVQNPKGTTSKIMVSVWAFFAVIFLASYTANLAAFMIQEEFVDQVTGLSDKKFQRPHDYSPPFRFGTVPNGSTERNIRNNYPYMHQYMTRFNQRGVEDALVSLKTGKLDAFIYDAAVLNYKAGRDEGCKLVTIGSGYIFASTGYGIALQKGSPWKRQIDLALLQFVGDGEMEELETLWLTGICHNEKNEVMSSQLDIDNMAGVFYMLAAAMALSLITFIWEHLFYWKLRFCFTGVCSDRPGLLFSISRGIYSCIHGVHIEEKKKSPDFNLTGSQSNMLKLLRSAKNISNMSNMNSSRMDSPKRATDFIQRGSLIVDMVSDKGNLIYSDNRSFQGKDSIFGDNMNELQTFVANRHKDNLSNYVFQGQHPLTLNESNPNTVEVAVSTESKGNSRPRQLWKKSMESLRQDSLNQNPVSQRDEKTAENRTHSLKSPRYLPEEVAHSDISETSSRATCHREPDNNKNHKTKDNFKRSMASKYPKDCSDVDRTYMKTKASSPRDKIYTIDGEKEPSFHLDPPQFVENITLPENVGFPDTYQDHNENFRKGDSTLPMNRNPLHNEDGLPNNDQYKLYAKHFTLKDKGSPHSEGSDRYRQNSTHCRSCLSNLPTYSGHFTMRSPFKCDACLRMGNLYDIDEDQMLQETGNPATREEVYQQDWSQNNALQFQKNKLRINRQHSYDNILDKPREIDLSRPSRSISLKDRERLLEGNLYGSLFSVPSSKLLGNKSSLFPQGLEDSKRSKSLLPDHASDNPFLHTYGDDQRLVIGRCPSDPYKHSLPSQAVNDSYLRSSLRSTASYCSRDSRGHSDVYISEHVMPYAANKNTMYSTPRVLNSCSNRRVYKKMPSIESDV
Test: Traditional channel block (coapplication of drug and agonists), tsA201 cells
Assay type: cell-based
Details: pH 7.2, WT, −65 mV; read-out: traditional IC50
Hi there, I'd appreciate the recorded pIC50 for every entry that follows.
Give bare numbers, as −log10 of the molar value.

For every listed record, write down its pIC50.
1. CC12CC3CC(C)(C1)CC([N+](C)(C)C)(C3)C2 [TMM]
2. CN(C)C12CC3CC(C)(CC(C)(C3)C1)C2.Cl [DMM]

a:
[4.14, 4.77]
